Value source: patent US20170008955A1

Target: T1, cSNK:BSA conjugate (bovine, head-to-tail cyclized; conjugated to BSA carrier)
T1 construct: also called BSA-cSNK
T1 sequence (P02769 25-607 limits assumed): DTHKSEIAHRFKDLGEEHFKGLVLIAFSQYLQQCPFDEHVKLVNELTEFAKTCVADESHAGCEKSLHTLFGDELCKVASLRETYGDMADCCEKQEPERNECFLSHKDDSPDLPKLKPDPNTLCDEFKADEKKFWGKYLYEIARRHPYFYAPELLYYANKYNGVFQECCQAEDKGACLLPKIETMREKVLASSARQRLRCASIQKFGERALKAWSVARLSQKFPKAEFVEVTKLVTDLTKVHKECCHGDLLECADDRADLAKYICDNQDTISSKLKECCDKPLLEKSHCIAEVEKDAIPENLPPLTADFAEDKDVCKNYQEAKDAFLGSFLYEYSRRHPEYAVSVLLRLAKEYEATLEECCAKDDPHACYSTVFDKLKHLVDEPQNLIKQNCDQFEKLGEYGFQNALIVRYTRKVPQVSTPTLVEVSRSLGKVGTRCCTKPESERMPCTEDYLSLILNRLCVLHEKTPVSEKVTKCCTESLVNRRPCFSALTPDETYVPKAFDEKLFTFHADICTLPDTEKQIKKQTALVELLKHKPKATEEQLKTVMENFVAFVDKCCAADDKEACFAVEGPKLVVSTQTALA
Test: BLI 2:1 fit, site 1; 12.5 nM row
Known kon of a selection of binders

{"Binder": "murine monoclonal antibody 5E3 (antibody, V domains shown, mouse antibody of the 5E3 hybridoma; also called murine 5E3; m5E3) VH: QVQLQQSGPELVKPGASVRISCKASGYIFTSYYIQWVIHRPGQGLEWIGWIYPGNVNTKYNEKFKGKATLTADKSSSTAYMQLSRLTSEDSAVYFCARMDYEAHYWGQGTTLTVSS VL: DIQMTQSPSSLSASLGERVSLTCRASQEISGYLTWLQQKPDGTIKRLIYAASTLDSGVPKRFSGSRSGSDYSLTISSLESEDFADYNCLQYANYPRTFGGGTKLEIK", "kon (M⁻¹ s⁻¹)": "1.29e+06"}
{"Binder": "hu5E3-IgG2 (antibody, V domains shown, human IgG2/kappa; also called humanized 5E3 IgG2) VH: QVQLQQSGPEVKKPGASVKISCKASGYIFTSYYIQWVIHAPGQGLEWIGWIYPGNVNTKYNEKFKGKATLTADKSSSTAYMELSSLTSEDTAVYFCARMDYEAHYWGQGTTVTVSS VL: DIQMTQSPSSLSASVGDRVTITCRASQEISGYLTWLQQKPEGAIKRLIYAASTLDSGVPKRFSGSRSGSDYSLTISSLQPEDFATYNCLQYANYPRTFGGGTKLEIK", "kon (M⁻¹ s⁻¹)": 644000}
{"Binder": "hu5E3-IgG4 (antibody, V domains shown, human IgG4/kappa; also called humanized 5E3 IgG4) VH: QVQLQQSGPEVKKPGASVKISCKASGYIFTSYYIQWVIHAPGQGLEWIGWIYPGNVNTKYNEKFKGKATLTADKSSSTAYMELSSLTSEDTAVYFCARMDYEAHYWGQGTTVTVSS VL: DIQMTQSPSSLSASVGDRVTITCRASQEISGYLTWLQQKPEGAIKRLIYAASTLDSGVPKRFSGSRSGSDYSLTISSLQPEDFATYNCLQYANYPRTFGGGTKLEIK", "kon (M⁻¹ s⁻¹)": 868000}
{"Binder": "hu5E3-IgG1 (antibody, V domains shown, human IgG1/kappa; also called humanized 5E3 IgG1; IHA variant) VH: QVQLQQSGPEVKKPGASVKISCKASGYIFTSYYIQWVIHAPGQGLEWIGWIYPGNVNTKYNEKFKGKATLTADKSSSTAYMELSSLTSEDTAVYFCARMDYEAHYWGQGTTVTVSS VL: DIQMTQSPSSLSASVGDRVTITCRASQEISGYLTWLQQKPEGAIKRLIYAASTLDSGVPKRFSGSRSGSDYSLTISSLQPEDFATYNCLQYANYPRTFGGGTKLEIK", "kon (M⁻¹ s⁻¹)": "1.78e+06"}
